systemName: Seed linoleate 13S-lipoxygenase-1 (Glycine max)
Sequence (P08170 whole entry): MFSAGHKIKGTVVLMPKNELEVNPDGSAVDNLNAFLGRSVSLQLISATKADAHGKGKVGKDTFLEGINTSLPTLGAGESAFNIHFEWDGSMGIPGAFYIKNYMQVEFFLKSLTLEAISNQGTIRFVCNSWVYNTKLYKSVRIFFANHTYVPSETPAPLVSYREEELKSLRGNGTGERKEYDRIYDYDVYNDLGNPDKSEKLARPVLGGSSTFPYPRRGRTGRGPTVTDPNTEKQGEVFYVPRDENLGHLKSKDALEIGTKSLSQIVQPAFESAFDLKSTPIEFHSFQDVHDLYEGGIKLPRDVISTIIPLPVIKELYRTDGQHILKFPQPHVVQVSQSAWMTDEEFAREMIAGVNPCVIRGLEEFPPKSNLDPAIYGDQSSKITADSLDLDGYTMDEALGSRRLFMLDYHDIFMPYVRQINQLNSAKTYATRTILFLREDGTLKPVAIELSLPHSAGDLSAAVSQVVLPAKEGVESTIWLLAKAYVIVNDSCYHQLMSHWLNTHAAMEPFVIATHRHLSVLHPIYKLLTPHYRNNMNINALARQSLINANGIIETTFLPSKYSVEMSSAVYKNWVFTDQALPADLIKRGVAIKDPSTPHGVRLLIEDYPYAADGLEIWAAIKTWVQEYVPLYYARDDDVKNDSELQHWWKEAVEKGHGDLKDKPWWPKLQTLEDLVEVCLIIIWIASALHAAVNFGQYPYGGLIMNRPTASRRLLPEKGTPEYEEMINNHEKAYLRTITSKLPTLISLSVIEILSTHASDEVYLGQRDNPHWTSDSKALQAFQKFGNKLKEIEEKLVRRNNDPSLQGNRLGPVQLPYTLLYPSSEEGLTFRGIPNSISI
experimentDescription: Binding affinity to soybean LO1
pKi: −log10 of the molar value. Where a name gives a salt, the structure may show the parent alone.
testReadout: pKi

INSERT INTO measurements (compound, reported) VALUES
  ('CCCCCCCC/C=C\CCCCCCCCOS(=O)(=O)O [OLEYL SULFATE]', 6.15);
